- Test system: T-47D breast
- method: NCI tumour cell line growth inhibition, 48 h
measured-property: TGI (µM)

> print(dat)
                                   compound  measured.property  relation.sign  observed.value
1  O=c1c2ccccc2c(=O)c2c1[nH]c1c(-c3ccccc3)c(-c3ccccc3)c(=O)c12                TGI              =            7.76
2  CC1=C(CO)C(=O)O[C@@H]([C@@H](CO)[C@H]2CCC3C4C[C@@H](O)[C@@]5(O)CC=CC(=O)[C@]5(C)C4CC[C@@]32C)C1 (some centres undefined)                TGI              >             100
3            N#Cc1c(Cl)cc(Cl)n2c1nc1ccccc12                TGI              =            31.8
4  CSc1cnc2ccccc2c1SC1CN(Cc2ccccc2)c2ccccc2C1=O (centres undefined)                TGI              >             100

----------
- Test system: U251 CNS
- method: NCI tumour cell line growth inhibition, 48 h
measured-property: TGI

> print(dat)
                                   molecule  observed.value
1  CC(=O)[C@@]1(O)CC[C@H]2[C@@H]3C[C@H](C)C4=CC(=O)C=C[C@]4(C)[C@@]3(F)[C@@H](O)C[C@@]21C        > 100 µM
2  O=C(N/N=C/c1cc(Br)cc(Br)c1[O-])c1ccccc1O.O=C(N/N=C/c1cc(Br)cc(Br)c1[O-])c1ccccc1O.[Cu+2]         1.24 µM
3         COc1ccc(/C=C/c2cc(OC)cc(=O)o2)cc1         76.9 µM
4                             N#Cc1cccnc1Cl        > 100 µM
5           C/C(N=NC(=S)N(C)C)=C1\C=CC=CN1O        > 100 µM
6  CN(C)c1cc[c]([Sn]([c]2ccc(N(C)C)cc2)([c]2ccc(N(C)C)cc2)[c]2ccc(N(C)C)cc2)cc1         21.2 µM
7  COc1ccc(CC2NCCc3cc(OC)c(OC)cc32)cc1Br (centres undefined)        > 100 µM
8  CCN(CC)c1ccc(N=Nc2ccc(-c3nc4ccc[n+](C)c4s3)cc2)cc1         27.1 µM
9  C=C([C@@]1(O)C[C@H]2[C@H](CCC2(OC)OC)[C@@H]2c3ccccc3O[C@@H]21)[Si](C)(C)C        > 100 µM

----------
- System: OVCAR-3 ovarian
- method: NCI tumour cell line growth inhibition, 48 h
Reported TGI is given for each of the following compounds.
measured-property: TGI (µM)

> print(dat)
                                    compound      measured.on  measured.property  relation.sign  observed.value
 1  CCOC(=O)C1C2CCC1CC(=NNc1ccc([N+](=O)[O-])cc1[N+](=O)[O-])C2 (stereo not given)  OVCAR-3 ovarian                TGI              >              50
 2  CN(C)c1cc[c]([Sn]([c]2ccc(N(C)C)cc2)([c]2ccc(N(C)C)cc2)[c]2ccc(N(C)C)cc2)cc1  OVCAR-3 ovarian                TGI              =            18.9
 3  C/C(CC(=O)NCCc1ccccc1)=N\NC(=O)C[n+]1ccccc1  OVCAR-3 ovarian                TGI              >             100
 4                      CSc1ncnc2c1ncn2CCC#N  OVCAR-3 ovarian                TGI              >             100
 5  CC1(C)[C@@H](OC(N)=O)[C@H]2O[C@H]2[C@]2(C=O)[C@H]3CC[C@]4(C)[C@@H](c5ccc(=O)oc5)[C@@H](Cl)C[C@]4(O)C3=CC[C@@H]12  OVCAR-3 ovarian                TGI              =         0.00981
 6  O=C1CC2c3ccccc3CCC2c2ccccc21 (stereo not given)  OVCAR-3 ovarian                TGI              =            41.8
 7  CCn1c(SCc2ccc(C)cc2)nnc1-c1nn(-c2ccc(Cl)cc2Cl)c(-c2ccc(Cl)cc2)c1C  OVCAR-3 ovarian                TGI              =            11.6
 8               O=c1cccc(C#CC#CC2=CCCCC2)o1  OVCAR-3 ovarian                TGI              =            10.4
 9  O=S(=O)(Nc1cc(Sc2cccc3cccnc23)c(O)c2ccccc12)c1ccccc1  OVCAR-3 ovarian                TGI              =             3.9
10  Cc1ccc2[nH]c(O)c(N=Nc3ccc(S(N)(=O)=O)cc3)c2c1  OVCAR-3 ovarian                TGI              >            18.4
11             ClCC[N+]12CC[N+](CCCl)(CC1)C2  OVCAR-3 ovarian                TGI              >             100
12  O=C1CSC(c2ccc(Cl)cc2Cl)N1c1ccc(F)cc1 (stereo not given)  OVCAR-3 ovarian                TGI              =            32.1
13  Nc1ccc(S2(c3ccc(N)cc3)C=C(c3ccccc3)C(c3ccccc3)=C2)cc1  OVCAR-3 ovarian                TGI              >             100
14  O=C1/C(=C/c2cccc([N+](=O)[O-])c2)COc2ccc(Br)cc21  OVCAR-3 ovarian                TGI              >             100
15    O=C(CN(c1ccccc1)c1ccccc1)n1nnc2ccccc21  OVCAR-3 ovarian                TGI              >             100
16  COc1cc(NC(C)CCCN)c2nccc(C)c2c1 (stereo not given)  OVCAR-3 ovarian                TGI              =            67.9
17  COc1cccc2c(=O)c3c(sc12)c(N1CCNCC1)nc1ccccc13  OVCAR-3 ovarian                TGI              =            3.12
18  Nc1ccn(C2OC(CO)C(O)C2O)c(=O)c1 (stereo not given)  OVCAR-3 ovarian                TGI              >             625
19  C=C([C@@]1(O)C[C@H]2[C@H](CCC2(OC)OC)[C@@H]2c3ccccc3O[C@@H]21)[Si](C)(C)C  OVCAR-3 ovarian                TGI              >             100
20  C=C1C(=O)C=C[C@]2(C)CC[C@H]3C(=C)C(=O)O[C@@H]3[C@@H]12  OVCAR-3 ovarian                TGI              =            11.1
21  CCOC(=O)NC(=O)c1cn(CCCOC(=O)CCCCCCCCCCC(=O)OCCCn2cc(C(=O)NC(=O)OCC)c(=O)[nH]c2=O)c(=O)[nH]c1=O  OVCAR-3 ovarian                TGI              >             100
22  COc1ccc(CCN2COc3c([C@@H](C)CCC=C(C)C)ccc(C)c3C2)cc1OC  OVCAR-3 ovarian                TGI              =            14.1
23   Cc1nc2sc3ccccc3n2c(=O)c1N=Nc1ccc(Cl)cc1  OVCAR-3 ovarian                TGI              >             100
24  COc1cc2c3c(c1OC)C1(C=CC(=O)C=C1)C[C@H]3N(C)CC2  OVCAR-3 ovarian                TGI              >             100
25  COc1ccc(C2COc3cc(O)c(O)cc3C2)cc1 (stereo not given)  OVCAR-3 ovarian                TGI              =            28.1
26  C=C1CCC(CC[C@@H]2CC[C@]3(OC2)O[C@@]2(O)CC[C@]3(C)OC2(C)C)C(C)(C)[C@H]1C/C=C1/C(=O)OC[C@@H]1O (stereo not given in full)  OVCAR-3 ovarian                TGI              =            7.41
27  [N-]=[N+]=NC1=C(c2ccccn2)C(=O)c2cccc3cccc1c23  OVCAR-3 ovarian                TGI              >             100
28  C=C1C(=O)OC2/C=C(\COC(C)=O)CCC(OC(C)=O)C3=CC(OC3=O)C12 (stereo not given)  OVCAR-3 ovarian                TGI              =            12.4
29  CC12CCC(O)CC1CCC1C2CCC2(C)C(C(=O)CC(O)C(F)(F)F)CCC12 (stereo not given)  OVCAR-3 ovarian                TGI              >            90.9
30  COc1ccc(C(=O)COc2ccc(/C=C3\COc4ccc(OC)cc4C3=O)cc2)cc1  OVCAR-3 ovarian                TGI              =            62.2
31  CCOC(=O)NC(Nc1cccc(C(F)(F)F)c1)(C(F)(F)F)C(F)(F)F  OVCAR-3 ovarian                TGI              >             100
32  Cc1ccc(-c2nc3ccc(Cl)cc3c(=O)n2N2C(=O)CSC2c2ccccc2Cl)cc1 (stereo not given)  OVCAR-3 ovarian                TGI              >             100
33                  CCSc1nc(SCC)c2cn[nH]c2n1  OVCAR-3 ovarian                TGI              >             100
34  CC(C)(C[C@H]1CN(S(=O)(=O)c2cccc(C(F)(F)F)c2)c2cc(-c3cc(F)cc(OC(F)F)c3)ccc2O1)C(=O)O  OVCAR-3 ovarian                TGI              =            14.1
35  C=C(Cl)C(C)(Cl)CCC(Br)C(C)(C)Cl (stereo not given)  OVCAR-3 ovarian                TGI              =            32.4
36  O=C(Nc1c(Cl)cc([N+](=O)[O-])cc1Cl)C(=O)C(C1OC(=O)c2ccccc21)[N+](=O)[O-] (stereo not given)  OVCAR-3 ovarian                TGI              >             100
37  CCOC(=O)NC(Nc1ccc([N+](=O)[O-])cc1)(C(F)(F)F)C(F)(F)F  OVCAR-3 ovarian                TGI              >             100
38  C1C[OH+]CC[OH+]CC[OH+]CC[OH+]CC[OH+]1.[Cl-].[V]  OVCAR-3 ovarian                TGI              >             100
39  O=C(O)C1C(Br)(c2ccccc2)C1(Br)c1ccccc1 (stereo not given)  OVCAR-3 ovarian                TGI              >             100
40  NC(CCC(=O)NC(CSCC1C(=O)Nc2ccccc21)C(=O)NCC(=O)O)C(=O)O (stereo not given)  OVCAR-3 ovarian                TGI              =            11.2
